Values compiled from patent US6436630B1.

Test system: foot mucosa of slugs of the species Arion
Method Description: Slug mucosal toxicity test of local anaesthetics, Example 4
Assay type: in vivo
Stated Conditions: Arion (slug), in vivo, 2 day
Where a name gives a salt, the structure may show the parent alone.
Property: Total protein release into PBS (µg/mL)
A number alone suffices; assume µg/mL.

Please report the recorded Total protein release into PBS for CCCCN1CCCCC1C(=O)Nc1c(C)cccc1C (stereo not shown) [Bupivacaine HCl, bupivacaine HCl] .
464

Now consider CCCCNc1ccc(C(=O)OCCN(C)C)cc1 [Tetracaine HCl, tetracaine HCl] .
130

Param item: CCCNC(C)C(=O)Nc1ccccc1C (stereo not shown) [Prilocaine HCl, prilocaine HCl]
62

Same thing, different compound: CCN(CC)CCOC(=O)c1ccc(N)cc1 [Procaine HCl, procaine HCl]
62
